tested on: Escherichia coli TOP10; assay: shrunken log2 fold change of peptide-encoding DNA abundance (4.5 h post-induction vs induction); higher = less antimicrobial activity (less host growth inhibition); details: time post-induction: 4.5 h; library: site-saturation at positions 5, 18, 19, 20
Provide the recorded shrunken log2 fold change for the entries that follow.
One number for each entry.

query: Recorded shrunken log2 fold change of `RRIRRRPPRLPRPRPRPDWKPRP` , please.
result: 0.192

query: Recorded shrunken log2 fold change of `RRIRSRPPRLPRPRPRPQICPRP` , please.
result: -0.0872

query: Recorded shrunken log2 fold change of `RRIRLRPPRLPRPRPRPFGTPRP` , please.
result: -0.424

Give one value of shrunken log2 fold change per listed sequence.
1. RRIRARPPRLPRPRPRPCCLPRP
2. RRIRKRPPRLPRPRPRPGMVPRP
3. RRIRFRPPRLPRPRPRPKPSPRP
4. RRIRARPPRLPRPRPRPQGIPRP
5. RRIRERPPRLPRPRPRPHRMPRP
6. RRIRGRPPRLPRPRPRPAEIPRP
7. RRIRVRPPRLPRPRPRPRTVPRP

result:
[0.0817, 0.8, 0.462, 0.0477, -0.305, 0.076, 0.16]

---

Provide the recorded shrunken log2 fold change for the entries that follow.
test system: Escherichia coli TOP10; assay: shrunken log2 fold change of peptide-encoding DNA abundance (4.5 h post-induction vs induction); higher = less antimicrobial activity (less host growth inhibition); details: time post-induction: 4.5 h; library: site-saturation at positions 5, 18, 19, 20
One number for each entry.

query: Recorded shrunken log2 fold change of `RRIRCRPPRLPRPRPRPSGYPRP` , please.
result: -0.724

Give one value of shrunken log2 fold change per listed sequence.
1. RRIRHRPPRLPRPRPRPMMLPRP
2. RRIRARPPRLPRPRPRPIEIPRP
3. RRIRMRPPRLPRPRPRPVKWPRP
4. RRIRLRPPRLPRPRPRPEMKPRP
5. RRIRVRPPRLPRPRPRPPIHPRP
6. RRIRQRPPRLPRPRPRPFLEPRP

result:
1. -0.286
2. 0.0613
3. 0.0346
4. -0.169
5. 0.042
6. -0.155

---

tested on: Escherichia coli TOP10; assay: shrunken log2 fold change of peptide-encoding DNA abundance (4.5 h post-induction vs induction); higher = less antimicrobial activity (less host growth inhibition); details: time post-induction: 4.5 h; library: site-saturation at positions 5, 18, 19, 20;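 further: peptides expressed intracellularly from a pBAD plasmid library in pooled LB shake-flask culture, induced with 0.3% L-arabinose, DNA abundance read by NGS, three biological replicates, DESeq2 with apeglm shrinkage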
Measured shrunken log2 fold change determines class: low bracket = under -0.2, middle bracket = from -0.2 up to 0.02, high bracket = 0.02 and over

Answered examples (5):
query: // return the class label for `RRIRTRPPRLPRPRPRPYLAPRP`
result: low bracket

query: // return the class label for `RRIRERPPRLPRPRPRPVTYPRP`
result: middle bracket

query: // return the class label for `RRIRERPPRLPRPRPRPSRCPRP`
result: high bracket

query: // return the class label for `RRIRPRPPRLPRPRPRPQNQPRP`
result: low bracket

query: // return the class label for `RRIRPRPPRLPRPRPRPYGTPRP`
result: low bracket

Further cases:
query: // return the class label for `RRIRCRPPRLPRPRPRPGLPPRP`
result: high bracket

query: // return the class label for `RRIRNRPPRLPRPRPRPEVHPRP`
result: middle bracket

query: // return the class label for `RRIRSRPPRLPRPRPRPYYNPRP`
result: low bracket

query: // return the class label for `RRIRNRPPRLPRPRPRPLMCPRP`
result: high bracket

query: // return the class label for `RRIRSRPPRLPRPRPRPQWIPRP`
result: low bracket

query: // return the class label for `RRIRMRPPRLPRPRPRPPVNPRP`
result: high bracket

query: // return the class label for `RRIRGRPPRLPRPRPRPWCLPRP`
result: low bracket

query: // return the class label for `RRIRMRPPRLPRPRPRPDLVPRP`
result: high bracket

query: // return the class label for `RRIRFRPPRLPRPRPRPAGIPRP`
result: middle bracket

query: // return the class label for `RRIRWRPPRLPRPRPRPTKNPRP`
result: high bracket

query: // return the class label for `RRIRTRPPRLPRPRPRPEGSPRP`
result: high bracket

query: // return the class label for `RRIRVRPPRLPRPRPRPWHHPRP`
result: high bracket

query: // return the class label for `RRIRDRPPRLPRPRPRPVWDPRP`
result: high bracket

query: // return the class label for `RRIRWRPPRLPRPRPRPEKTPRP`
result: high bracket

query: // return the class label for `RRIRNRPPRLPRPRPRPWMWPRP`
result: middle bracket

query: // return the class label for `RRIRQRPPRLPRPRPRPVICPRP`
result: middle bracket

query: // return the class label for `RRIRARPPRLPRPRPRPHIVPRP`
result: middle bracket

query: // return the class label for `RRIRGRPPRLPRPRPRPWFIPRP`
result: low bracket
